- assayed-target: human NMB receptor (BB1) (Homo sapiens, UniProt P28336)
- Construct: expressed in transfected cells; membranes prepared from the cells
- Sequence (P28336 whole entry): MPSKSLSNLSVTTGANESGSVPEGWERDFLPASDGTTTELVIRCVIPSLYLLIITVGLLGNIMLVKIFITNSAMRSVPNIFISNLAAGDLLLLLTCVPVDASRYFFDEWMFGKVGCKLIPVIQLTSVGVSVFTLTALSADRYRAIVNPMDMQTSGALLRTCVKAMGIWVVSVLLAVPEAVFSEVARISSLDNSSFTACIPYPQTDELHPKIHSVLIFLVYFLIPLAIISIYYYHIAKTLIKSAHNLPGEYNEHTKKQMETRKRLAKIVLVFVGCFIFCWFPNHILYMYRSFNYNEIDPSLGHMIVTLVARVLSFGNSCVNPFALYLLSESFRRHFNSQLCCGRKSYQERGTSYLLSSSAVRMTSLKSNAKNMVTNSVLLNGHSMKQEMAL
- assay-name: BB1 binding assay ([125I][Tyr4]bombesin displacement, CHO-K1 membranes)
- assay-setup: Table 1, human NMB receptor binding affinity; Ki from IC50 by Cheng-Prusoff; read-out: NMB Ki
measurement-kind: Ki (nM)

I. COc1ccc(C2(CNC(=O)[C@](C)(Cc3c[nH]c4ccccc34)Nc3nc(-c4ccccc4)co3)CCCCC2)nc1
II. COc1ccc(C2(CNC(=O)[C@](C)(Cc3c[nH]c4ccccc34)Nc3nc(-c4ccc(C#N)cc4)co3)CCCCC2)nc1
III. COCC1(CNC(=O)[C@](C)(Cc2c[nH]c3ccccc23)Nc2nc(-c3ccc([N+](=O)[O-])cc3)co2)CCCCC1
IV. C[C@@](Cc1c[nH]c2ccccc12)(Nc1ccncc1)C(=O)NCC1(c2ccccn2)CCCCC1
Query string: Order the above compounds by increasing Ki. Returns: the labels arranged in the requested order.
Result string: II, I, IV, III
(II: 19 nM, I: 106 nM, IV: 303 nM, III: 469 nM)

The measurements presented in this section are drawn from patent US20020169101A1.
